Values were extracted from patent US20060241172A1.

Target: human 5-HT2C receptor (Homo sapiens, UniProt P28335)
Sequence (P28335 33-458): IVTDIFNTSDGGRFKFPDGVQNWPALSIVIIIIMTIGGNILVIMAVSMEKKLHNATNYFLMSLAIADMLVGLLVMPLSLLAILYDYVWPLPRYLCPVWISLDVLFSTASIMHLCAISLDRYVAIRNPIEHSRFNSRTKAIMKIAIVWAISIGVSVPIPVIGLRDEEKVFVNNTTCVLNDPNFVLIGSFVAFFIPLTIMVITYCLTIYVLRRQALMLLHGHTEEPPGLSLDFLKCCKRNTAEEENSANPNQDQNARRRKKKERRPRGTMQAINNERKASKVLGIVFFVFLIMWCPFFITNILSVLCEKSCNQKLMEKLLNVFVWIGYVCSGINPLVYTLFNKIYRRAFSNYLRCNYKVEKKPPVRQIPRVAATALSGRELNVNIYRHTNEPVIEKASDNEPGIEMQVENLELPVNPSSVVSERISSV
Test: 5-HT2C receptor-stimulated calcium mobilization (FLIPR) in CHO cells
Type: cell-based
Conditions: CHO; read-out: 5-HT2C Function EMax (%)
Give measured Emax for each item. Keep answers brief.
Returns: string containing the number followed by the unit.

-- ask Look up and state reported Emax for NC[C@H]1COc2cc(Cl)cc(-c3ccc(Cl)cc3Cl)c2O1 [Compound I-64]
-- reply 60%

-- ask Look up and state reported Emax for NCC1COc2cccc(-c3ccc(Cl)cc3Cl)c2O1 (centres unmarked) [Compound I-7]
-- reply 70%

-- ask Look up and state reported Emax for NCC1COc2cccc(-c3cccc(F)c3F)c2O1 (centres unmarked) [Compound I-13]
-- reply 70%

-- ask Look up and state reported Emax for NCC1COc2cccc(-c3ccccc3F)c2O1 (centres unmarked) [Compound I-2]
-- reply 70%

-- ask Look up and state reported Emax for Cc1ccccc1-c1cccc2c1OC(CN)CO2 (centres unmarked) [Compound I-3]
-- reply 60%

* * *

Molecular target: human 5-HT2C receptor (Homo sapiens, UniProt P28335)
Experiment: 5-HT2C receptor-stimulated calcium mobilization (FLIPR) in CHO cells
Format: cell-based
Details: CHO; read-out: 5-HT2C Function EMax (%)
measured_quantity: Emax (%)
The figure you give is taken to be in %; do not add the unit.

-- ask Look up and state reported Emax for COc1cccc(-c2cccc3c2OC(CN)CO3)c1OC (stereo not shown)
-- reply 50

-- ask Look up and state reported Emax for Cc1ccccc1-c1cc(Cl)cc2c1O[C@@H](CN)CO2
-- reply 50

-- ask Look up and state reported Emax for NCC1COc2cccc(-c3ccccc3C(F)(F)F)c2O1 (stereo not shown)
-- reply 70

-- ask Look up and state reported Emax for NCC1Oc2cc(F)cc(-c3ccccc3Cl)c2O1 (stereo not shown)
-- reply 80

-- ask Look up and state reported Emax for NC[C@H]1COc2ccc(F)c(-c3ccccc3Cl)c2O1
-- reply 40

-- ask Look up and state reported Emax for Clc1ccc(-c2cccc3c2OC(CNC2CCC2)CO3)c(Cl)c1 (stereo not shown)
-- reply 30

-- ask Look up and state reported Emax for Cc1ccccc1-c1cc(Cl)cc2c1OC(CN)O2 (stereo not shown)
-- reply 80

-- ask Look up and state reported Emax for Cc1ccc(C)c(-c2cccc3c2OC(CN)CO3)c1 (stereo not shown)
-- reply 60

-- ask Look up and state reported Emax for CNCC1COc2cccc(-c3ccccc3Cl)c2O1 (stereo not shown)
-- reply 40

-- ask Look up and state reported Emax for NCC1COc2cccc(-c3cccc(Cl)c3Cl)c2O1 (stereo not shown)
-- reply 70

* * *

Biological target: human 5-HT2C receptor (Homo sapiens)
Assay: 5-HT2C receptor-stimulated calcium mobilization (FLIPR) in CHO cells
Format: cell-based
Conditions: read-out: 5-HT2C Function EC50
pEC50: −log10 of the molar value.
Give measured pEC50 for each item. Keep answers brief.

-- ask Look up and state reported pEC50 for COc1cccc(-c2cc(Cl)cc3c2O[C@@H](CN)CO3)c1OC
-- reply < 6.30

-- ask Look up and state reported pEC50 for NCC1Oc2cc(F)cc(-c3ccccc3C(F)(F)F)c2O1 (stereo not drawn)
-- reply > 7.00

-- ask Look up and state reported pEC50 for CN(C)CC1COc2cccc(-c3ccc(Cl)cc3Cl)c2O1 (stereo not drawn)
-- reply 6.30 to 7.00
